Origin of values: ChEMBL document CHEMBL4609983

What follows is a record of pKd for Chromobox protein homolog 1 (Homo sapiens, UniProt P83916).
Non-standard residues stand in square brackets, D forms with d. Residues, ends and D or L forms follow the SMILES beside them. *: point of attachment. X1 = O=C(O)c1cc(NC(=S)*)ccc1-c1c2ccc(=O)cc-2oc2cc(O)ccc12; Lys(Me3) = C[N+](C)(C)CCCC[C@H](N)C(=O)O; Benzoyl(4-Br) = O=C(c1ccc(Br)cc1)*; Gly(cPent) = N[C@H](C(=O)O)C1CCCC1; Abu = CC[C@H](N)C(=O)O
Numbers only, as −log10 of the molar value.

Here's what some known entries look like.
CC[C@H](NC(=O)[C@H](Cc1ccccc1)NC(=O)c1ccc(Br)cc1)C(=O)N[C@@H](Cc1ccccc1)C(=O)N[C@@H](CCCC[N+](C)(C)C)C(=O)N[C@@H](CO)C(=O)N[C@@H](CCC(=O)O)C(=O)N[C@@H](CCCCNC(=S)Nc1ccc(-c2c3ccc(=O)cc-3oc3cc(O)ccc23)c(C(=O)O)c1)C(N)=O ({Benzoyl(4-Br)}-F[Abu]F[Lys(Me3)]SEK(X1)-NH2): 3.74
CC(=O)N[C@@H](Cc1ccccc1)C(=O)N[C@@H](Cc1ccccc1)C(=O)N[C@@H](C)C(=O)N[C@@H](CC(C)C)C(=O)N[C@@H](CCCC[N+](C)(C)C)C(=O)N[C@@H](CO)C(=O)N[C@@H](CCC(=O)O)C(=O)N[C@@H](CCCCNC(=S)Nc1ccc(-c2c3ccc(=O)cc-3oc3cc(O)ccc23)c(C(=O)O)c1)C(N)=O (Ac-FFAL[Lys(Me3)]SEK(X1)-NH2): 3.96
CC[C@H](NC(=O)[C@H](Cc1ccccc1)NC(=O)c1ccc(Br)cc1)C(=O)N[C@H](C(=O)N[C@@H](CCCC[N+](C)(C)C)C(=O)N[C@@H](CO)C(=O)N[C@@H](CCC(=O)O)C(=O)N[C@@H](CCCCNC(=S)Nc1ccc(-c2c3ccc(=O)cc-3oc3cc(O)ccc23)c(C(=O)O)c1)C(N)=O)C1CCCC1 ({Benzoyl(4-Br)}-F[Abu][Gly(cPent)][Lys(Me3)]SEK(X1)-NH2): 5.49

For CC(C)C[C@H](NC(=O)[C@H](CO)NC(=O)[C@H](CCCC[N+](C)(C)C)NC(=O)[C@H](Cc1ccc(O)cc1)NC(=O)[C@H](C)NC(=O)[C@H](Cc1ccccc1)NC(=O)c1ccc(Br)cc1)C(=O)N[C@@H](CCCCNC(=S)Nc1ccc(-c2c3ccc(=O)cc-3oc3cc(O)ccc23)c(C(=O)O)c1)C(N)=O ({Benzoyl(4-Br)}-FAY[Lys(Me3)]SLK(X1)-NH2) the compound record lists pKd as 5.76

====

Non-standard residues stand in square brackets, D forms with d. Residues, ends and D or L forms follow the SMILES beside them. *: point of attachment. Lys(Me3) = C[N+](C)(C)CCCC[C@H](N)C(=O)O; Benzoyl(4-Br) = O=C(c1ccc(Br)cc1)*; Gly(cPent) = N[C@H](C(=O)O)C1CCCC1; Abu = CC[C@H](N)C(=O)O
What follows is a record of pIC50 for Chromobox protein homolog 6 (Homo sapiens).
One number for each entry, as −log10 of the molar value.

CC[C@H](NC(=O)[C@H](Cc1ccccc1)NC(=O)c1ccc(Br)cc1)C(=O)N[C@H](C(=O)N[C@@H](CCCC[N+](C)(C)C)C(=O)N[C@@H](CO)C(=O)N[C@@H](CCC(=O)O)C(N)=O)C1CCCC1 ({Benzoyl(4-Br)}-F[Abu][Gly(cPent)][Lys(Me3)]SE-NH2): 5.55
CC(C)C[C@H](NC(=O)[C@H](CO)NC(=O)[C@H](CCCC[N+](C)(C)C)NC(=O)[C@H](Cc1ccc(O)cc1)NC(=O)[C@H](C)NC(=O)[C@H](Cc1ccccc1)NC(=O)c1ccc(Br)cc1)C(N)=O ({Benzoyl(4-Br)}-FAY[Lys(Me3)]SL-NH2): 4.89

Please report pIC50 for every entry that follows.
1. C[C@H](NC(=O)[C@H](Cc1ccccc1)NC(=O)c1ccc(Br)cc1)C(=O)N[C@@H](Cc1ccc(O)cc1)C(=O)N[C@@H](CCCC[N+](C)(C)C)C(=O)N[C@@H](CO)C(N)=O ({Benzoyl(4-Br)}-FAY[Lys(Me3)]S-NH2)
2. C[C@H](NC(=O)[C@H](Cc1ccccc1)NC(=O)c1ccc(Br)cc1)C(=O)N[C@@H](Cc1ccc(O)cc1)C(=O)N[C@@H](CCCC[N+](C)(C)C)C(=O)N[C@@H](CO)C(=O)N[C@@H](CCC(=O)O)C(N)=O ({Benzoyl(4-Br)}-FAY[Lys(Me3)]SE-NH2)

[4.80, 5.22]
